The reported numbers originate from ChEMBL document CHEMBL4033754.

system: Mus musculus; assay: Antiobesity activity in lean C57BL/6J mouse assessed as inhibition of food intake at 1 mg/kg administered via subcutaneous osmotic pumps for 3 continuous days relative to control; conditions: sc
Where a SMILES comes first, the peptide text is derived from it. [ ]: non-standard residue; d: D form. ξ: configuration not given here. ξCha = NC(CC1CCCCC1)C(=O)O; Aib = CC(C)(N)C(=O)O; Sar = CNCC(=O)O
Mark label 0 for inhibition in vivo at 1 mg/kg values under 30%, and label 1 for everything at or above.

* CC(=O)N[C@@H](CO)C(=O)N(C)[C@H](C)C(=O)N[C@@H](CCCNC(=N)N)C(=O)N[C@@H](Cc1cnc[nH]1)C(=O)NC(CC1CCCCC1)C(=O)NC(CC1CCCCC1)C(=O)N[C@@H](CC(N)=O)C(=O)N[C@@H](CC(C)C)C(=O)NC(C)(C)C(=O)N[C@H](C(=O)N[C@@H](CCCNC(=N)N)C(=O)N[C@@H](CCC(N)=O)C(=O)N[C@@H](CCCNC(=N)N)C(=O)NC(CC1CCCCC1)C(N)=O)[C@@H](C)O (stereo not given in full) | label 0
* CC(=O)N[C@@H](CO)C(=O)NC(C)(C)C(=O)N[C@@H](CCCNC(=N)N)C(=O)N[C@@H](Cc1cnc[nH]1)C(=O)NC(CC1CCCCC1)C(=O)NC(CC1CCCCC1)C(=O)N[C@@H](CC(N)=O)C(=O)N[C@@H](CC(C)C)C(=O)NC(C)(C)C(=O)N[C@H](C(=O)N[C@@H](CCCNC(=N)N)C(=O)N[C@@H](CCC(N)=O)C(=O)N[C@@H](CCCNC(=N)N)C(=O)NC(CC1CCCCC1)C(N)=O)[C@@H](C)O (stereo not given in full) (Ac-S[Aib]RH[ξCha][ξCha]NL[Aib]TRQR[ξCha]-NH2) | label 1
* CC(=O)N[C@@H](CO)C(=O)N(C)CC(=O)N[C@@H](CCCNC(=N)N)C(=O)N[C@@H](Cc1cnc[nH]1)C(=O)NC(CC1CCCCC1)C(=O)NC(CC1CCCCC1)C(=O)N[C@@H](CC(N)=O)C(=O)N[C@@H](CC(C)C)C(=O)NC(C)(C)C(=O)N[C@H](C(=O)N[C@@H](CCCNC(=N)N)C(=O)N[C@@H](CCC(N)=O)C(=O)N[C@@H](CCCNC(=N)N)C(=O)NC(CC1CCCCC1)C(N)=O)[C@@H](C)O (stereo not given in full) (Ac-S[Sar]RH[ξCha][ξCha]NL[Aib]TRQR[ξCha]-NH2) | label 0
* CC(=O)N[C@@H](CO)C(=O)N1C[C@@H](O)C[C@@H]1C(=O)N[C@@H](CCCNC(=N)N)C(=O)N[C@@H](Cc1cnc[nH]1)C(=O)N[C@@H](CC1CCCCC1)C(=O)N[C@@H](CC1CCCCC1)C(=O)N[C@@H](CC(N)=O)C(=O)N[C@@H](CC(C)C)C(=O)NC(C)(C)C(=O)N[C@H](C(=O)N[C@@H](CCCNC(=N)N)C(=O)N[C@@H](CCC(N)=O)C(=O)N[C@@H](CCCNC(=N)N)C(=O)N[C@@H](CC1CCCCC1)C(N)=O)[C@@H](C)O | label 1
* CC(=O)N[C@@H](CO)C(=O)N1CCC[C@@H]1C(=O)N[C@@H](CCCNC(=N)N)C(=O)N[C@@H](Cc1cnc[nH]1)C(=O)NC(CC1CCCCC1)C(=O)NC(CC1CCCCC1)C(=O)N[C@@H](CC(N)=O)C(=O)N[C@@H](CC(C)C)C(=O)NC(C)(C)C(=O)N[C@H](C(=O)N[C@@H](CCCNC(=N)N)C(=O)N[C@@H](CCC(N)=O)C(=O)N[C@@H](CCCNC(=N)N)C(=O)NC(CC1CCCCC1)C(N)=O)[C@@H](C)O (stereo not given in full) | label 1

###

experiment: Bioavailability in C57BL/6J mouse at 1 mg/kg through subcutaneous administration after 24 hrs by LC-MS/MS analysis; assay type: ADME, organism-based; details: in vivo, sc
Where a SMILES comes first, the peptide text is derived from it. [ ]: non-standard residue; d: D form. The star is where a group is joined. ξ: configuration not given here. ξCha = NC(CC1CCCCC1)C(=O)O; Aib = CC(C)(N)C(=O)O; Bz = O=C(c1ccccc1)*
readout_kind: bioavailability (%)

• CC(C)C[C@H](NC(=O)[C@H](CC(N)=O)NC(=O)C(CC1CCCCC1)NC(=O)C(CC1CCCCC1)NC(=O)[C@H](Cc1cnc[nH]1)NC(=O)[C@H](CCCNC(=N)N)NC(=O)c1ccccc1)C(=O)NC(C)(C)C(=O)N[C@H](C(=O)N[C@@H](CCCNC(=N)N)C(=O)N[C@@H](CCC(N)=O)C(=O)N[C@@H](CCCNC(=N)N)C(=O)NC(CC1CCCCC1)C(N)=O)[C@@H](C)O (stereo partly specified) (Bz-RH[ξCha][ξCha]NL[Aib]TRQR[ξCha]-NH2) = 5.9

###

experiment: Mean residence time in C57BL/6J mouse at 1 mg/kg through subcutaneous administration after 24 hrs by LC-MS/MS analysis; type: ADME, organism-based; conditions: in vivo, sc
Where a SMILES comes first, the peptide text is derived from it. [ ]: non-standard residue; d: D form. The star is where a group is joined. ξ: configuration not given here. ξCha = NC(CC1CCCCC1)C(=O)O; Aib = CC(C)(N)C(=O)O; Bz = O=C(c1ccccc1)*
readout_kind: MRT (h)

• CC(=O)N[C@@H](CO)C(=O)N1C[C@@H](O)C[C@@H]1C(=O)N[C@@H](CCCNC(=N)N)C(=O)N[C@@H](Cc1cnc[nH]1)C(=O)N[C@@H](CC1CCCCC1)C(=O)N[C@@H](CC1CCCCC1)C(=O)N[C@@H](CC(N)=O)C(=O)N[C@@H](CC(C)C)C(=O)NC(C)(C)C(=O)N[C@H](C(=O)N[C@@H](CCCNC(=N)N)C(=O)N[C@@H](CCC(N)=O)C(=O)N[C@@H](CCCNC(=N)N)C(=O)N[C@@H](CC1CCCCC1)C(N)=O)[C@@H](C)O = 0.32
• CC(C)C[C@H](NC(=O)[C@H](CC(N)=O)NC(=O)C(CC1CCCCC1)NC(=O)C(CC1CCCCC1)NC(=O)[C@H](Cc1cnc[nH]1)NC(=O)[C@H](CCCNC(=N)N)NC(=O)c1ccccc1)C(=O)NC(C)(C)C(=O)N[C@H](C(=O)N[C@@H](CCCNC(=N)N)C(=O)N[C@@H](CCC(N)=O)C(=O)N[C@@H](CCCNC(=N)N)C(=O)NC(CC1CCCCC1)C(N)=O)[C@@H](C)O (some centres not stated) (Bz-RH[ξCha][ξCha]NL[Aib]TRQR[ξCha]-NH2) = 3.17

###

experiment: Plasma concentration in C57BL/6J mouse at 1 mg/kg, iv after 5 mins by LC-MS/MS analysis; assay type: ADME, organism-based
Where a SMILES comes first, the peptide text is derived from it. [ ]: non-standard residue; d: D form. The star is where a group is joined. ξ: configuration not given here. ξCha = NC(CC1CCCCC1)C(=O)O; Aib = CC(C)(N)C(=O)O; Bz = O=C(c1ccccc1)*
readout_kind: concentration at 5 min

- CC(=O)N[C@@H](CO)C(=O)N1C[C@@H](O)C[C@@H]1C(=O)N[C@@H](CCCNC(=N)N)C(=O)N[C@@H](Cc1cnc[nH]1)C(=O)N[C@@H](CC1CCCCC1)C(=O)N[C@@H](CC1CCCCC1)C(=O)N[C@@H](CC(N)=O)C(=O)N[C@@H](CC(C)C)C(=O)NC(C)(C)C(=O)N[C@H](C(=O)N[C@@H](CCCNC(=N)N)C(=O)N[C@@H](CCC(N)=O)C(=O)N[C@@H](CCCNC(=N)N)C(=O)N[C@@H](CC1CCCCC1)C(N)=O)[C@@H](C)O: 0.935 µM
- CC(C)C[C@H](NC(=O)[C@H](CC(N)=O)NC(=O)C(CC1CCCCC1)NC(=O)C(CC1CCCCC1)NC(=O)[C@H](Cc1cnc[nH]1)NC(=O)[C@H](CCCNC(=N)N)NC(=O)c1ccccc1)C(=O)NC(C)(C)C(=O)N[C@H](C(=O)N[C@@H](CCCNC(=N)N)C(=O)N[C@@H](CCC(N)=O)C(=O)N[C@@H](CCCNC(=N)N)C(=O)NC(CC1CCCCC1)C(N)=O)[C@@H](C)O (some centres not stated) (Bz-RH[ξCha][ξCha]NL[Aib]TRQR[ξCha]-NH2): 7.55 µM

###

molecular target: Neuropeptide Y receptor type 2 (Homo sapiens); test: Displacement of [125I]-PYY from human Y2R expressed in CHO cell membranes after 60 mins by liquid scintillation method
Sequence (P49146 whole entry): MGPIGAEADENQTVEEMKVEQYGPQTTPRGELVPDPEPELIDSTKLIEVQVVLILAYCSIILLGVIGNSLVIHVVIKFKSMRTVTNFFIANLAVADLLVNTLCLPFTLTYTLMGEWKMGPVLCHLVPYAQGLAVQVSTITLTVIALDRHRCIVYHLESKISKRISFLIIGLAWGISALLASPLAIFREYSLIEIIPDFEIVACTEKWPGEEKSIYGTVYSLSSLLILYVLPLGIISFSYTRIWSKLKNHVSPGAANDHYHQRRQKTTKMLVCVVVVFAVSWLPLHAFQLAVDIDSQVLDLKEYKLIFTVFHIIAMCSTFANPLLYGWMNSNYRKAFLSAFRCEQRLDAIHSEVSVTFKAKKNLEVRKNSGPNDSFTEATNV
Where a SMILES comes first, the peptide text is derived from it. [ ]: non-standard residue; d: D form. The star is where a group is joined. ξ: configuration not given here. Cha = N[C@@H](CC1CCCCC1)C(=O)O; ξCha = NC(CC1CCCCC1)C(=O)O; Aib = CC(C)(N)C(=O)O; Bz = O=C(c1ccccc1)*
readout_kind: IC50 (nM)

* CC(C)C[C@H](NC(=O)[C@H](CC(N)=O)NC(=O)C(CC1CCCCC1)NC(=O)C(CC1CCCCC1)NC(=O)[C@H](Cc1cnc[nH]1)NC(=O)[C@H](CCCNC(=N)N)NC(=O)c1ccccc1)C(=O)NC(C)(C)C(=O)N[C@H](C(=O)N[C@@H](CCCNC(=N)N)C(=O)N[C@@H](CCC(N)=O)C(=O)N[C@@H](CCCNC(=N)N)C(=O)NC(CC1CCCCC1)C(N)=O)[C@@H](C)O (stereo partly drawn) (Bz-RH[ξCha][ξCha]NL[Aib]TRQR[ξCha]-NH2) | 7.4
* CC(C)C[C@H](NC(=O)[C@H](CO)NC(=O)[C@H](C)N)C(=O)N[C@@H](CCCNC(=N)N)C(=O)N[C@@H](Cc1cnc[nH]1)C(=O)N[C@@H](CC1CCCCC1)C(=O)N[C@@H](CC1CCCCC1)C(=O)N[C@@H](CC(N)=O)C(=O)N[C@@H](CC(C)C)C(=O)NC(C)(C)C(=O)N[C@H](C(=O)N[C@@H](CCCNC(=N)N)C(=O)N[C@@H](CCC(N)=O)C(=O)N[C@@H](CCCNC(=N)N)C(=O)N[C@@H](CC1CCCCC1)C(N)=O)[C@@H](C)O (H-ASLRH[Cha][Cha]NL[Aib]TRQR[Cha]-NH2) | 1.7
* CC(=O)N[C@@H](CO)C(=O)NC(C)(C)C(=O)N[C@@H](CCCNC(=N)N)C(=O)N[C@@H](Cc1cnc[nH]1)C(=O)NC(CC1CCCCC1)C(=O)NC(CC1CCCCC1)C(=O)N[C@@H](CC(N)=O)C(=O)N[C@@H](CC(C)C)C(=O)NC(C)(C)C(=O)N[C@H](C(=O)N[C@@H](CCCNC(=N)N)C(=O)N[C@@H](CCC(N)=O)C(=O)N[C@@H](CCCNC(=N)N)C(=O)NC(CC1CCCCC1)C(N)=O)[C@@H](C)O (stereo partly drawn) (Ac-S[Aib]RH[ξCha][ξCha]NL[Aib]TRQR[ξCha]-NH2) | 2
